target: CYP2C9 (Homo sapiens); construct: purchased Merck; assay: in vitro; format: biochemical; settings: human, pH 7.5, each 20 μM; diclofenac 5 μM; 120 min; read-out: inhibition of CYP2C9 (decrease in metabolite formation)
Sequence (P11712 whole entry): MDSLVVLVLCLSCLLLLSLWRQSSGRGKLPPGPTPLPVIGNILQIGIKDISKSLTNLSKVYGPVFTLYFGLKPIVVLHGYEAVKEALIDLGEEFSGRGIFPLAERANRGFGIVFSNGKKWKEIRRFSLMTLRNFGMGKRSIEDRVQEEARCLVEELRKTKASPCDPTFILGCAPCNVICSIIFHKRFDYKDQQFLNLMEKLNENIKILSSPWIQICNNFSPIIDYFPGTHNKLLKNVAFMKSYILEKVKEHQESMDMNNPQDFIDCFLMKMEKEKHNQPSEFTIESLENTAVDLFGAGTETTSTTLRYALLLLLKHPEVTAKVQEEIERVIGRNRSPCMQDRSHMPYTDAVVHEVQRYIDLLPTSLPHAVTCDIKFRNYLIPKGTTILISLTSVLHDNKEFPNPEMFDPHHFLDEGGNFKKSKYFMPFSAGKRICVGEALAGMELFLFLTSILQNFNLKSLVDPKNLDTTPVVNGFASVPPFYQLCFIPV
outcome.measure: inhibition at 120 min, 20 μM

**Query** Which inhibition at 120 min, 20 μM value belongs to C[C@H]1CCCC(=O)CCC/C=C/c2cc(OS(=O)(=O)O)cc(O)c2C(=O)O1 [Z14S, zearalenone-14-sulfate] ?
**Result** ~45%

----------
molecular target: BCRP (Homo sapiens, UniProt Q9UNQ0); construct: made in house; host or cells: Sf9 insect cells (baculovirus); assay: BCRP-mediated LY vesicular transport (Sf9 membrane vesicles); assay type: biochemical
Sequence (Q9UNQ0 whole entry): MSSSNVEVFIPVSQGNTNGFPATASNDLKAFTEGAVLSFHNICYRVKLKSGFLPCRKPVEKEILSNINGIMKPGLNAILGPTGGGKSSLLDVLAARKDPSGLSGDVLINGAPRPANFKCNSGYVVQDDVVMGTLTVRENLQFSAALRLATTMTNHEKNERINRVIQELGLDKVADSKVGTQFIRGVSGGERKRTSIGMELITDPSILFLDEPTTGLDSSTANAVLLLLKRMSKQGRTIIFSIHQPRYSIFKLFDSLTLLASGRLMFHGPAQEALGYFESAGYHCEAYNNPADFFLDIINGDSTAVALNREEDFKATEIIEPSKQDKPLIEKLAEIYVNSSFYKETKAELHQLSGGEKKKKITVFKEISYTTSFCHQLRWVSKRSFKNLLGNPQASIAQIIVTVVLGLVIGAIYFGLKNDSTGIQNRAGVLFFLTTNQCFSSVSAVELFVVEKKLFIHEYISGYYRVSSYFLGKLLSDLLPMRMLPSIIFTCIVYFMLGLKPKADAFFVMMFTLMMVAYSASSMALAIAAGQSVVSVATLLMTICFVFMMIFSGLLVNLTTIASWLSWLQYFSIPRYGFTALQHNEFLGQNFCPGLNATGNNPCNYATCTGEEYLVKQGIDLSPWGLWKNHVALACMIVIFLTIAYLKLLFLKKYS
Please provide measured pIC50 for the entries that follow.
Give bare numbers, as −log10 of the molar value.

C[C@H]1CCCC(=O)CCC/C=C/c2cc(O)cc(O)c2C(=O)O1 [ZEN, Zearalenone] : 5.59

**Query** # lookup: pIC50 of C[C@H]1CCCC(=O)CCC/C=C/c2cc(OS(=O)(=O)O)cc(O)c2C(=O)O1 [Z14S, zearalenone-14-sulfate]
**Result** 5.36

----------
Target: OATP1B1 (Homo sapiens, UniProt Q9Y6L6)
Construct: expressed in transfected cells; host or cells: A431
Sequence (Q9Y6L6 1-691): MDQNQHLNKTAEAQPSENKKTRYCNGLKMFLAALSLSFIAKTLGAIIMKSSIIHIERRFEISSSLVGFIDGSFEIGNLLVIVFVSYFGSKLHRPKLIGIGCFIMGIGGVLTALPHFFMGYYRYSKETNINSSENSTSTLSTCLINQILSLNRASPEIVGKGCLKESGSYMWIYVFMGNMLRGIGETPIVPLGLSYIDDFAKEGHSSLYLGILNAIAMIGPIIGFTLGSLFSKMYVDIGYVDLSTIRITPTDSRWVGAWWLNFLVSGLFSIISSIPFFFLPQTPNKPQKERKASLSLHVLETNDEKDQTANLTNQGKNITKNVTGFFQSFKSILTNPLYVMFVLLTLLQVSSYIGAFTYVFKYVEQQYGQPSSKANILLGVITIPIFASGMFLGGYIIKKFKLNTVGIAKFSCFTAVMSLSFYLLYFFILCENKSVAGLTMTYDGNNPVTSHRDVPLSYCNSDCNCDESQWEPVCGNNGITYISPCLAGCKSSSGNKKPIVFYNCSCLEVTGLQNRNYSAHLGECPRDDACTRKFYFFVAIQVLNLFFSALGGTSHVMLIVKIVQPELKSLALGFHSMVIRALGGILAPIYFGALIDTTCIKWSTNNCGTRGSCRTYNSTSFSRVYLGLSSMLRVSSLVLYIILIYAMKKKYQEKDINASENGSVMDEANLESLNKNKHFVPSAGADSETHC
Test: OATP1B1-mediated pyranine uptake in overexpressing A431 cells
Format: cell-based
Conditions: pyranine 10 μM; 15 min; A431 cells; read-out: IC50 for OATP1B1
pIC50: −log10 of the molar value.
outcome.measure: pIC50

**Query** Fill blank: measured pIC50 of the compound C[C@H]1CCCC(=O)CCC/C=C/c2cc(O[C@@H]3O[C@H](C(=O)O)[C@@H](O)[C@H](O)[C@H]3O)cc(O)c2C(=O)O1 [Z14GA, Zearalenone-14-glucuronide] is ____.
**Result** < 4.70

----------
biological target: OATP1B3 (Homo sapiens); construct: expressed in transfected cells; host or cells: A431; assay: OATP1B3-mediated pyranine uptake in overexpressing A431 cells; type: cell-based
outcome.measure: pIC50
One number for each entry, as −log10 of the molar value.

**Query** Quick one: pIC50 of C[C@H]1CCCC(=O)CCC/C=C/c2cc(OS(=O)(=O)O)cc(O)c2C(=O)O1 [Z14S, zearalenone-14-sulfate] ?
**Result** 5.64

----------
biological target: OATP1A2 (Homo sapiens, UniProt P46721); construct: expressed in transfected cells; host or cells: A431; assay: OATP1A2-mediated SR101 uptake in overexpressing A431 cells; assay type: cell-based
Sequence (P46721 whole entry): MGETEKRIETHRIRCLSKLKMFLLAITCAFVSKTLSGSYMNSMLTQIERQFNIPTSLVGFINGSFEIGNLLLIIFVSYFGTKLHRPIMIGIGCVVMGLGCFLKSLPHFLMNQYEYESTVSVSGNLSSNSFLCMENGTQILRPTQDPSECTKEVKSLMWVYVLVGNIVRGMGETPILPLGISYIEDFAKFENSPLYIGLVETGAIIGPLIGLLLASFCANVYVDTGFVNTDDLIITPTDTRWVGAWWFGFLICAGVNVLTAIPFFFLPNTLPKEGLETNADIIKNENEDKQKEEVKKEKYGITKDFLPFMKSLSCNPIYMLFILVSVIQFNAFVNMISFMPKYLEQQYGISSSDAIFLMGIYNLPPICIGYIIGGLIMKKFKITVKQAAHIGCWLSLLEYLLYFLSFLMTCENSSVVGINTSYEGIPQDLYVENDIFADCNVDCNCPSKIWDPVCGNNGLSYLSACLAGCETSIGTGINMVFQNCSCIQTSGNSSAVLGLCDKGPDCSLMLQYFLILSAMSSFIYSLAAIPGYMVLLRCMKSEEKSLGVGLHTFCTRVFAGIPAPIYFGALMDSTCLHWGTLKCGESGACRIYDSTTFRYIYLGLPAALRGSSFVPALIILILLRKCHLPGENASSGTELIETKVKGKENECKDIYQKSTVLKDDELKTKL
outcome.measure: pIC50
Give bare numbers, as −log10 of the molar value.

**Query** Hello, I am looking for reported pIC50 with OATP1A2 (Homo sapiens, UniProt P46721) for C[C@H]1CCCC(=O)CCC/C=C/c2cc(OS(=O)(=O)O)cc(O)c2C(=O)O1 [Z14S, zearalenone-14-sulfate] . Could you help?
**Result** 5.85

----------
Target: OATP1A2 (Homo sapiens, UniProt P46721)
Construct: expressed in transfected cells; host or cells: A431
Test: OATP1A2-mediated SR101 uptake in overexpressing A431 cells
Type: cell-based
Details: SR101 0.5 μM; 10 min; A431 cells; read-out: IC50 for OATP1A2
Protocol: The human epidermoid carcinoma cell (A431) overexpressing OATP1A2, OATP1B1, OATP1B3, or OATP2B1 transporters and their mock control cells were generated previously as described. , Cell culture was maintained in DMEM supplemented with 10% fetal bovine serum, 2 mM L-glutamine, 100 units/mL penicillin, and 100 μg/mL streptomycin at 37 °C and 5% CO2. […]
outcome.measure: IC50

**Query** Which value of IC50 has been reported for C[C@H]1CCCC(=O)CCC/C=C/c2cc(O[C@@H]3O[C@H](C(=O)O)[C@@H](O)[C@H](O)[C@H]3O)cc(O)c2C(=O)O1 [Z14GA, Zearalenone-14-glucuronide] in the records?
**Result** > 20 µM

----------
Target: OATP1B3 (Homo sapiens, UniProt Q9NPD5)
Construct: expressed in transfected cells; host or cells: A431
Sequence (Q9NPD5 1-702): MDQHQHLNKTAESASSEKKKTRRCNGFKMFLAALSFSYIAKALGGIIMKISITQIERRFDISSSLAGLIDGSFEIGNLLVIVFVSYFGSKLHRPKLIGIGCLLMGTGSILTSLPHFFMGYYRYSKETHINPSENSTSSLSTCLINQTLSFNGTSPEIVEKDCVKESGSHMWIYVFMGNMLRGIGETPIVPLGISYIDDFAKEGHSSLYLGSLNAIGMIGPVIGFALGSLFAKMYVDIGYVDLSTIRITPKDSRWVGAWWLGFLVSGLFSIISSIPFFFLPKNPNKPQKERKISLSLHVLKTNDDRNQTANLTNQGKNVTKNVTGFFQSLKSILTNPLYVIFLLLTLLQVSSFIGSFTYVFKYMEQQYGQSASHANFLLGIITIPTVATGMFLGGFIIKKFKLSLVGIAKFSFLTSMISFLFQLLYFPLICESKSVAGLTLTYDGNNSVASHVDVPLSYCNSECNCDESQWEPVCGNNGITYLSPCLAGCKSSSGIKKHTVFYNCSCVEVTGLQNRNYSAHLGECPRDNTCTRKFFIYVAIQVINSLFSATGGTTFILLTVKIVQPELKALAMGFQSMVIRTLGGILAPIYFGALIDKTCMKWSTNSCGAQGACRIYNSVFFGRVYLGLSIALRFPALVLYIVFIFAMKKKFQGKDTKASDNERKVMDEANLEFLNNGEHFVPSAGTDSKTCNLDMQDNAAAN
Test: OATP1B3-mediated pyranine uptake in overexpressing A431 cells
Type: cell-based
Conditions: pyranine 20 μM; 30 min; A431 cells; read-out: IC50 for OATP1B3
pIC50: −log10 of the molar value.
outcome.measure: pIC50

**Query** Consider the compound C[C@H]1CCCC(=O)CCC/C=C/c2cc(O[C@@H]3O[C@H](C(=O)O)[C@@H](O)[C@H](O)[C@H]3O)cc(O)c2C(=O)O1 [Z14GA, Zearalenone-14-glucuronide] and give its measured pIC50.
**Result** < 4.70

----------
Biological target: OATP1B1 (Homo sapiens, UniProt Q9Y6L6)
Construct: expressed in transfected cells; host or cells: A431
Sequence (Q9Y6L6 1-691): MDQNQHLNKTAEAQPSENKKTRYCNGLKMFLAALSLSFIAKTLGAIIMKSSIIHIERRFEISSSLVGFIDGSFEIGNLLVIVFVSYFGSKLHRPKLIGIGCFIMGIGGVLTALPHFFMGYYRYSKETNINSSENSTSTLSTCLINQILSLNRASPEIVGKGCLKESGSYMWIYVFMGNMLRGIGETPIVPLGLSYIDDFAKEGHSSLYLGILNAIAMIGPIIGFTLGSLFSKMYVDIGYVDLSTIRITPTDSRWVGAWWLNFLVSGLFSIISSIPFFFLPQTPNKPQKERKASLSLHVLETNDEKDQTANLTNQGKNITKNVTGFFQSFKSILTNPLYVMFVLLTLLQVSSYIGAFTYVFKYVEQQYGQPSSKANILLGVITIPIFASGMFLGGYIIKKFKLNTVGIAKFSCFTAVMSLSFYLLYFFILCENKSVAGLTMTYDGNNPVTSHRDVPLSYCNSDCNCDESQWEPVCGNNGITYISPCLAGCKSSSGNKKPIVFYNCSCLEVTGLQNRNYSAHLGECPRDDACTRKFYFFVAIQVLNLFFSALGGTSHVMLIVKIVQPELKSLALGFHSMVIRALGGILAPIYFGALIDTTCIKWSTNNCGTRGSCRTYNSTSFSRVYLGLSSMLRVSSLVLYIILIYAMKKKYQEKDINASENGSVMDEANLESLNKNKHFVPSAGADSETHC
Assay: OATP1B1-mediated pyranine uptake in overexpressing A431 cells
Assay type: cell-based
outcome.measure: IC50
Express the reported value numerically, then name its unit.

**Query** Return reported IC50; argument: C[C@H]1CCCC(=O)CCC/C=C/c2cc(OS(=O)(=O)O)cc(O)c2C(=O)O1 [Z14S, zearalenone-14-sulfate]
**Result** 270 nM

Recorded values, source paper PMC12311865.
